Tested on: RT-4
Assay: Cell viability assay (ATPlite)
Assay type: cell-based, human
Details: Homo sapiens, RT-4, 72 h, RT-4 cell line, 72 hours incubation
property.label: IC50 (nM)
Express the result in nM but write the number alone.

Look up IC50: O=C(c1ccc(Oc2ccccc2)cc1Cl)c1c[nH]c2ncnc(N[C@@H]3CC[C@@H](CO)OC3)c12 1700

---

Biological target: PEK (Homo sapiens, UniProt Q9NZJ5)
Construct: purchased Carna Biosciences
Sequence (Q9NZJ5 30-1116): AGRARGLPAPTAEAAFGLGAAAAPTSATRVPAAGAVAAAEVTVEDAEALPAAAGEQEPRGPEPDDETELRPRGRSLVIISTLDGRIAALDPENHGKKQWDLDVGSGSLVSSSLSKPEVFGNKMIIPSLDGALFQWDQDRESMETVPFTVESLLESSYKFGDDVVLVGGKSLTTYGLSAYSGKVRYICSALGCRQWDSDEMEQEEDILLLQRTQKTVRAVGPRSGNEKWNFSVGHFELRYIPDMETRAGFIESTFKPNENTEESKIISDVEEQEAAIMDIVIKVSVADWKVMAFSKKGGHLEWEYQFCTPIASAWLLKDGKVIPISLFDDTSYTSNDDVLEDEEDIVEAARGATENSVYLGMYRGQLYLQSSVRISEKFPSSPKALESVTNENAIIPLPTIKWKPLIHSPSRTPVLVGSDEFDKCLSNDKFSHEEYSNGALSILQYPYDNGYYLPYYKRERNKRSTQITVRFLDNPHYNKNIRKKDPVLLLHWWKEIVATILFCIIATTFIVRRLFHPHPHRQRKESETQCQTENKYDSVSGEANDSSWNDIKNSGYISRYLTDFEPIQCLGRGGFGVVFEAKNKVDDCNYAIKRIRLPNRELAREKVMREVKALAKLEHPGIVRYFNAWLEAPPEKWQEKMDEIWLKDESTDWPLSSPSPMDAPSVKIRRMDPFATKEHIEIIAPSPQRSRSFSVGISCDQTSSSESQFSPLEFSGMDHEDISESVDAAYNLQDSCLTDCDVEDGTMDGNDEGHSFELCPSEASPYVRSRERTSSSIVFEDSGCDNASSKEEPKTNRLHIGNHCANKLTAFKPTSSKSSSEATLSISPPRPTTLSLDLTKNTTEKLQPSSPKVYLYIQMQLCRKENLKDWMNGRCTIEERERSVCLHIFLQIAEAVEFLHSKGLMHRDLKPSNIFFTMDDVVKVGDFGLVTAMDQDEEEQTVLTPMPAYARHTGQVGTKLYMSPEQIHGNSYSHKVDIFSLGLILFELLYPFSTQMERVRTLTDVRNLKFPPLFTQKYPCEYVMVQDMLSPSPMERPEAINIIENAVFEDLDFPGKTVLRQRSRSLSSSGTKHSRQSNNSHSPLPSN
Assay: Kinase panel profiling at 1 µmol/L (mobility shift assay, Carna)
Type: biochemical
Conditions: 1 µmol/L of BTK inhibitor
Entries and their Percentage inhibition of kinase enzyme activity values follow.
Express the result in % but write the number alone.

The examples below pair each entry with its known result.
CC#CC(=O)N1CCC[C@H]1c1nc(-c2ccc(C(=O)Nc3ccccn3)cc2)c2c(N)nccn12 8.39
C=CC(=O)N1CCC[C@@H](n2nc(-c3ccc(Oc4ccccc4)cc3)c3c(N)ncnc32)C1 7.47
O=C(c1ccc(Oc2ccccc2)cc1Cl)c1c[nH]c2ncnc(N[C@@H]3CC[C@@H](CO)OC3)c12 49.66

Write down the reported Percentage inhibition of kinase enzyme activity of COc1ccc(F)cc1C(=O)NCc1ccc(-c2nn([C@@H](C)C(F)(F)F)c(N)c2C(N)=O)cc1 , test system: PEK (Homo sapiens, UniProt Q9NZJ5). -9.35

---

Tested on: SHP-77
Experiment: Cell viability assay (ATPlite)
Type: cell-based
Details: Homo sapiens, SHP77; SHP-77 cell line, 72 hours incubation
property.label: pIC50
Scale: negative log10 of molar concentration, which is what pIC50 denotes.

Look up pIC50: O=C(c1ccc(Oc2ccccc2)cc1Cl)c1c[nH]c2ncnc(N[C@@H]3CC[C@@H](CO)OC3)c12 [nemtabrutinib] 4.84

---

Target: FLT3 (Homo sapiens, UniProt P36888)
Construct: purchased Carna Biosciences
Assay: Kinase panel profiling at 1 µmol/L (mobility shift assay, Carna)
Format: biochemical
Details: 1 µmol/L of BTK inhibitor
property.label: Percentage inhibition of kinase enzyme activity (%)
Express the result in % but write the number alone.

Look up Percentage inhibition of kinase enzyme activity: C=CC(=O)N1CCC[C@@H](n2nc(-c3ccc(Oc4ccccc4)cc3)c3c(N)ncnc32)C1 62.77

---

Biological target: MEK2 (Homo sapiens, UniProt P36507)
Construct: purchased Carna Biosciences, Inc. 07-42
Test: Kinase enzyme activity assay (ELISA, in-house)
Format: biochemical
Details: IC50, MEK2
property.label: IC50 (nM)
Express the result in nM but write the number alone.

Look up IC50: O=C(c1ccc(Oc2ccccc2)cc1Cl)c1c[nH]c2ncnc(N[C@@H]3CC[C@@H](CO)OC3)c12 9.5

---

Target: BTK (Homo sapiens)
property.label: pIC50
Scale: negative log10 of molar concentration, which is what pIC50 denotes.

Write down the reported pIC50 of COc1ccc(F)cc1C(=O)NCc1ccc(-c2nn([C@@H](C)C(F)(F)F)c(N)c2C(N)=O)cc1 [pirtobrutinib] , test system: BTK (Homo sapiens). 8.64

---

Molecular target: ROCK1 (Homo sapiens)
Construct: purchased Carna Biosciences
Sequence (Q13464 whole entry): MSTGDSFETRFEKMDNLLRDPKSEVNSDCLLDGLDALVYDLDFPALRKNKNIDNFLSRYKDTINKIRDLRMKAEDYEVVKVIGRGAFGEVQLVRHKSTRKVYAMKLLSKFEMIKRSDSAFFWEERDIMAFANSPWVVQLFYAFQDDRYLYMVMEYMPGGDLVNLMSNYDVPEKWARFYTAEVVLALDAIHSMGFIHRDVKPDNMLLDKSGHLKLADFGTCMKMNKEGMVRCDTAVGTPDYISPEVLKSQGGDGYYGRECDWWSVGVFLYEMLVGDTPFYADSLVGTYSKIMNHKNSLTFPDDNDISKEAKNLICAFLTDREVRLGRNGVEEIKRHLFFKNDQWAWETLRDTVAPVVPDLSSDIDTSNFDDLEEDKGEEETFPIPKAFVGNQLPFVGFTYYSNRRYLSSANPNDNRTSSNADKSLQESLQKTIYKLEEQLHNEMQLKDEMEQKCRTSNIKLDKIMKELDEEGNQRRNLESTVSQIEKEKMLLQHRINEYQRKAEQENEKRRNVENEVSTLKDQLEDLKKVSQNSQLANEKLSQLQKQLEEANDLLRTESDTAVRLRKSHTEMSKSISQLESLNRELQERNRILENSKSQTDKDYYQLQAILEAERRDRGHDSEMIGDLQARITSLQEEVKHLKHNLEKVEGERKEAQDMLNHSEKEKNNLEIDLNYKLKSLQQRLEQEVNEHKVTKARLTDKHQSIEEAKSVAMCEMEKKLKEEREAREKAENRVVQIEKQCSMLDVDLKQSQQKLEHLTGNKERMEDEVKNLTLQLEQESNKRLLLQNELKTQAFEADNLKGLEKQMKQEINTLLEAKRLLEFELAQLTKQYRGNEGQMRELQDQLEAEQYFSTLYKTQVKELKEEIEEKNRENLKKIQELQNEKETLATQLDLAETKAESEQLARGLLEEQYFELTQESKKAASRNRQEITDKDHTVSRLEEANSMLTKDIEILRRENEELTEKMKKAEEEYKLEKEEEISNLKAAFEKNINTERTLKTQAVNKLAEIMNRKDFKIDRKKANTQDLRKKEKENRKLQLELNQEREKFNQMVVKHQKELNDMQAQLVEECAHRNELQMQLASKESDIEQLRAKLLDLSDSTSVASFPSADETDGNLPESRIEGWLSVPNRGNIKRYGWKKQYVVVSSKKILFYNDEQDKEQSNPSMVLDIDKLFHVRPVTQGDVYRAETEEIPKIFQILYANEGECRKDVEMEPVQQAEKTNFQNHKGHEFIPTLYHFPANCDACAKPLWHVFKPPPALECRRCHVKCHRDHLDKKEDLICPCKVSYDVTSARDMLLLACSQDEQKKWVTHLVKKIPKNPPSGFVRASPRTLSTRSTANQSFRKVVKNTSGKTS
Assay: Kinase panel profiling at 1 µmol/L (mobility shift assay, Carna)
Assay type: biochemical
Settings: 1 µmol/L of BTK inhibitor
property.label: Percentage inhibition of kinase enzyme activity
Please report the result as a number followed by the unit.

COc1ccc(F)cc1C(=O)NCc1ccc(-c2nn([C@@H](C)C(F)(F)F)c(N)c2C(N)=O)cc1 -4.30%
CC#CC(=O)N1CCC[C@H]1c1nc(-c2ccc(C(=O)Nc3ccccn3)cc2)c2c(N)nccn12 -7.78%
O=C(c1ccc(Oc2ccccc2)cc1Cl)c1c[nH]c2ncnc(N[C@@H]3CC[C@@H](CO)OC3)c12 16.05%

Please look at the following compound next.
Look up Percentage inhibition of kinase enzyme activity: C=CC(=O)N1CCC[C@@H](n2nc(-c3ccc(Oc4ccccc4)cc3)c3c(N)ncnc32)C1 -5.42%

---

Target: CDC7/ASK (Homo sapiens, UniProt O00311)
Construct: purchased Carna Biosciences
Sequence (O00311 whole entry): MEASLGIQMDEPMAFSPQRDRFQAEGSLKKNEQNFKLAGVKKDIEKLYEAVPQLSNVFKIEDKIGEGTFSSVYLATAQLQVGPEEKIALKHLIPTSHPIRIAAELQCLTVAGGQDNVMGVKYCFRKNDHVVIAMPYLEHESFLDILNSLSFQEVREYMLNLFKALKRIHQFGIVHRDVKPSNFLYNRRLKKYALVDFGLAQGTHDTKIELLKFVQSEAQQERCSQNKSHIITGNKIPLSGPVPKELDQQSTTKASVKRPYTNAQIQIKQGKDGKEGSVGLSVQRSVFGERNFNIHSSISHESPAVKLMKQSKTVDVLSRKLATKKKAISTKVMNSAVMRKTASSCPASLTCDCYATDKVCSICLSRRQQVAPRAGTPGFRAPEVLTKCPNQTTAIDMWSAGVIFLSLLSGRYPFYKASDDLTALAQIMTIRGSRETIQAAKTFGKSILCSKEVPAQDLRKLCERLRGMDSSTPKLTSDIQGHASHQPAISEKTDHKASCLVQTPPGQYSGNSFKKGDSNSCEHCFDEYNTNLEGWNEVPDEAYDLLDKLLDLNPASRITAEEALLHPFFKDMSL
Sequence (Q9UBU7 whole entry partner): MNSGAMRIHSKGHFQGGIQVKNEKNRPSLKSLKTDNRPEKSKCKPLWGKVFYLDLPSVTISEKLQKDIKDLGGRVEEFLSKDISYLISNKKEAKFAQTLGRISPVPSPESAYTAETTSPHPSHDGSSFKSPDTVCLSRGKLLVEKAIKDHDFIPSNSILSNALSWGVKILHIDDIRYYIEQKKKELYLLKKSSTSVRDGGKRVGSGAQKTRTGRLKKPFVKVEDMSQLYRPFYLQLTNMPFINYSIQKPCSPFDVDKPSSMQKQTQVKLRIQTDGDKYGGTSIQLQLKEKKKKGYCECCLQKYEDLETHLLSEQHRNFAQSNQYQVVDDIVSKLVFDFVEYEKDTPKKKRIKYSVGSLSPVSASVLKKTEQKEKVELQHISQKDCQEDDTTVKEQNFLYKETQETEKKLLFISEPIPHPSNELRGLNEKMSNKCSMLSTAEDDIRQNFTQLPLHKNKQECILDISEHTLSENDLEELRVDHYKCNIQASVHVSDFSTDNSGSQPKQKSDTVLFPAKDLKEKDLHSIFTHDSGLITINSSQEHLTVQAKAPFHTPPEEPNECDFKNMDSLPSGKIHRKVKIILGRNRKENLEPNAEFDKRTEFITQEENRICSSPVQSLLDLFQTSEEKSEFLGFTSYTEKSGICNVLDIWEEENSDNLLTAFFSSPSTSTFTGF
Test: Kinase panel profiling at 1 µmol/L (mobility shift assay, Carna)
Format: biochemical
Details: 1 µmol/L of BTK inhibitor
Entries and their Percentage inhibition of kinase enzyme activity values follow.
Express the result in % but write the number alone.

The examples below pair each entry with its known result.
molecule	recorded.measurement
C=CC(=O)N1CCC[C@@H](n2nc(-c3ccc(Oc4ccccc4)cc3)c3c(N)ncnc32)C1 [ibrutinib]	-0.99
O=C(c1ccc(Oc2ccccc2)cc1Cl)c1c[nH]c2ncnc(N[C@@H]3CC[C@@H](CO)OC3)c12 [nemtabrutinib]	-1.26
COc1ccc(F)cc1C(=O)NCc1ccc(-c2nn([C@@H](C)C(F)(F)F)c(N)c2C(N)=O)cc1 [pirtobrutinib]	-5.67

Please look at the following molecule next.
Write down the reported Percentage inhibition of kinase enzyme activity of CC#CC(=O)N1CCC[C@H]1c1nc(-c2ccc(C(=O)Nc3ccccn3)cc2)c2c(N)nccn12 [acalabrutinib] , test system: CDC7/ASK (Homo sapiens, UniProt O00311). -1.64

---

Entries and their Percentage inhibition of kinase enzyme activity values follow.
Biological target: ALK (Homo sapiens, UniProt Q9UM73)
Construct: purchased Carna Biosciences
Assay: Kinase panel profiling at 1 µmol/L (mobility shift assay, Carna)
Assay type: biochemical
Settings: 1 µmol/L of BTK inhibitor
Express the result in % but write the number alone.

The examples below pair each entry with its known result.
COc1ccc(F)cc1C(=O)NCc1ccc(-c2nn([C@@H](C)C(F)(F)F)c(N)c2C(N)=O)cc1 6.67
C=CC(=O)N1CCC[C@@H](n2nc(-c3ccc(Oc4ccccc4)cc3)c3c(N)ncnc32)C1 5.45
O=C(c1ccc(Oc2ccccc2)cc1Cl)c1c[nH]c2ncnc(N[C@@H]3CC[C@@H](CO)OC3)c12 50.65

Please look at the following compound next.
Write down the reported Percentage inhibition of kinase enzyme activity of CC#CC(=O)N1CCC[C@H]1c1nc(-c2ccc(C(=O)Nc3ccccn3)cc2)c2c(N)nccn12 , test system: ALK (Homo sapiens, UniProt Q9UM73). 5.27

---

Entries and their Percentage inhibition of kinase enzyme activity values follow.
Molecular target: CDK4/CycD3 (Homo sapiens)
Construct: purchased Carna Biosciences
Assay: Kinase panel profiling at 1 µmol/L (mobility shift assay, Carna)
Type: biochemical
Details: 1 µmol/L of BTK inhibitor
Express the result in % but write the number alone.

molecule	assay.system	recorded.measurement
COc1ccc(F)cc1C(=O)NCc1ccc(-c2nn([C@@H](C)C(F)(F)F)c(N)c2C(N)=O)cc1 [pirtobrutinib]	CDK4/CycD3 (Homo sapiens)	4.05
O=C(c1ccc(Oc2ccccc2)cc1Cl)c1c[nH]c2ncnc(N[C@@H]3CC[C@@H](CO)OC3)c12 [nemtabrutinib]	CDK4/CycD3 (Homo sapiens)	0.33
CC#CC(=O)N1CCC[C@H]1c1nc(-c2ccc(C(=O)Nc3ccccn3)cc2)c2c(N)nccn12 [acalabrutinib]	CDK4/CycD3 (Homo sapiens)	-13.28

Please look at the following molecule next.
Look up Percentage inhibition of kinase enzyme activity: C=CC(=O)N1CCC[C@@H](n2nc(-c3ccc(Oc4ccccc4)cc3)c3c(N)ncnc32)C1 [ibrutinib] 4.00

---

Target: FGFR2 (Homo sapiens, UniProt P21802)
Sequence (P21802 22-821): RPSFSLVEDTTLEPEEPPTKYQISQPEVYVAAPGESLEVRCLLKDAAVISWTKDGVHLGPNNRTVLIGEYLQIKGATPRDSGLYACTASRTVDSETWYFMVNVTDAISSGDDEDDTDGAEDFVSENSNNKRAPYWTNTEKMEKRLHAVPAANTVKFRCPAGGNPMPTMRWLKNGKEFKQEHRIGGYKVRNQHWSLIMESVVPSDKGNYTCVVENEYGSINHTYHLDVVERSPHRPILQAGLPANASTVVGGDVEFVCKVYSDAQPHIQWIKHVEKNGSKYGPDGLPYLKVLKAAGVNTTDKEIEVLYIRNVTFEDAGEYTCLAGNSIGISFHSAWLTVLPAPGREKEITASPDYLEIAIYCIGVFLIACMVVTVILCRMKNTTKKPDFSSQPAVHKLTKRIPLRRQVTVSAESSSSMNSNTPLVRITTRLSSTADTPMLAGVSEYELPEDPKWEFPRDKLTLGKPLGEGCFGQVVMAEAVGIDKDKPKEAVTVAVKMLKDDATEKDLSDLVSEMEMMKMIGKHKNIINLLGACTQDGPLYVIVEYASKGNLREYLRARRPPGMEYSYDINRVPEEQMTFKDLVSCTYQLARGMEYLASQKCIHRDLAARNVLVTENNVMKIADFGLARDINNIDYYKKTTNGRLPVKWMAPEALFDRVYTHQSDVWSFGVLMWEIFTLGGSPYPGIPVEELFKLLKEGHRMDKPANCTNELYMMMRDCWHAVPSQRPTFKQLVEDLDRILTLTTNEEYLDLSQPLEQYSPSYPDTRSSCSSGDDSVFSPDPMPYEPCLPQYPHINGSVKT
Assay: Kinase enzyme activity assay (mobility shift assay, Carna)
Conditions: FGFR2; 1 µmol/L of BTK inhibitor
property.label: Percentage inhibition of kinase enzyme activity (%)
Express the result in % but write the number alone.

The examples below pair each entry with its known result.
C=CC(=O)N1CCC([C@@H]2CCNc3c(C(N)=O)c(-c4ccc(Oc5ccccc5)cc4)nn32)CC1 1.70
C=CC(=O)N1CCC[C@@H](n2nc(-c3ccc(Oc4ccccc4)cc3)c3c(N)ncnc32)C1 81.29
O=C(c1ccc(Oc2ccccc2)cc1Cl)c1c[nH]c2ncnc(N[C@@H]3CC[C@@H](CO)OC3)c12 45.29
COc1ccc(F)cc1C(=O)NCc1ccc(-c2nn([C@@H](C)C(F)(F)F)c(N)c2C(N)=O)cc1 12.14

Please look at the following molecule next.
Look up Percentage inhibition of kinase enzyme activity: CC#CC(=O)N1CCC[C@H]1c1nc(-c2ccc(C(=O)Nc3ccccn3)cc2)c2c(N)nccn12 -6.22

---

Target: ERK1 (Homo sapiens)
Sequence (P27361 whole entry): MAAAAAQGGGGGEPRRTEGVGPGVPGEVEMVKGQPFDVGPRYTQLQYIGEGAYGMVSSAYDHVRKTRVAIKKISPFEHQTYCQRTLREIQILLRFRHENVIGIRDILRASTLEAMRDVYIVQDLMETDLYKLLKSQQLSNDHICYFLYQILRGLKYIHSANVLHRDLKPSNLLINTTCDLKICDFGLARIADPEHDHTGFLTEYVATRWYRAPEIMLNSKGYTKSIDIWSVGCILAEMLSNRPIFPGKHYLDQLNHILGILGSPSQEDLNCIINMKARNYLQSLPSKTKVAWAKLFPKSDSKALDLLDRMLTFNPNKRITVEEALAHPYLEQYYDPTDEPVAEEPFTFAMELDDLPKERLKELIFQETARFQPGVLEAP
Test: Kinase enzyme activity assay (mobility shift assay, Carna)
Conditions: Erk1; 1 µmol/L of BTK inhibitor
Entries and their Percentage inhibition of kinase enzyme activity values follow.
Express the result in % but write the number alone.

The examples below pair each entry with its known result.
molecule	uom	recorded.measurement
C=CC(=O)N1CCC[C@@H](n2nc(-c3ccc(Oc4ccccc4)cc3)c3c(N)ncnc32)C1 [ibrutinib]	%	1.74
CC#CC(=O)N1CCC[C@H]1c1nc(-c2ccc(C(=O)Nc3ccccn3)cc2)c2c(N)nccn12 [acalabrutinib]	%	-2.38
O=C(c1ccc(Oc2ccccc2)cc1Cl)c1c[nH]c2ncnc(N[C@@H]3CC[C@@H](CO)OC3)c12 [nemtabrutinib]	%	61.74

Please look at the following molecule next.
Look up Percentage inhibition of kinase enzyme activity: COc1ccc(F)cc1C(=O)NCc1ccc(-c2nn([C@@H](C)C(F)(F)F)c(N)c2C(N)=O)cc1 [pirtobrutinib] -1.16
